Sequence of the target: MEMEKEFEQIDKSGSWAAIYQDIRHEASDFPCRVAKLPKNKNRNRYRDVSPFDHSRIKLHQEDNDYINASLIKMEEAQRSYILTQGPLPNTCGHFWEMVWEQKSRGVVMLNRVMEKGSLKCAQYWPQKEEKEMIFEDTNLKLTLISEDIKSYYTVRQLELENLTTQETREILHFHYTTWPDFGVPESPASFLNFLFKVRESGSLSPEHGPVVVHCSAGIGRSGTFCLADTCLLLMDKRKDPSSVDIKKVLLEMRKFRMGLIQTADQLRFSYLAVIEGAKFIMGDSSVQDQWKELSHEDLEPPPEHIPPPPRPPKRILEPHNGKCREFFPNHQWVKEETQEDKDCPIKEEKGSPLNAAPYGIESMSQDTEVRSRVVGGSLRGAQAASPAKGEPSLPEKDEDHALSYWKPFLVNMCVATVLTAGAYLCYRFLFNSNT
reported_property: IC50 (µM)
Just the number in µM, nothing appended.

Any idea what IC50 was measured for COc1c(C2=NOC(c3ccccn3)C2)ccc2c1C=CC(C)(C)O2 (stereo unspecified) ?
87
